FYI, the data here is from patent US20240343803A1.

Biological target: T1, human PVRIG-his (AcroBiosystems, Cat NO. PVG-H52H4) (human, UniProt Q6DKI7 41-171, limits assumed)
T1 construct: also called human PVRIG protein
T1 sequence (looked up): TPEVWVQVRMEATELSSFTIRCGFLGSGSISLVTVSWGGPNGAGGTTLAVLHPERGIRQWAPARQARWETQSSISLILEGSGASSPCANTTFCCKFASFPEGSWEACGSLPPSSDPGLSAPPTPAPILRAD
Test: SPR (BIAcore), antibody captured on Protein A chip, human PVRIG-His analyte
The following binders are shown together with reported koff values.
Report field: quantity (unit follows the number).

Here are 3 binders together with their reported answers.
PVRIG-A75 (Fc fusion, heavy chain antibody VHH-hinge-CH2-CH3, human IgG1 constant part; not shown: human IgG1 hinge-CH2-CH3) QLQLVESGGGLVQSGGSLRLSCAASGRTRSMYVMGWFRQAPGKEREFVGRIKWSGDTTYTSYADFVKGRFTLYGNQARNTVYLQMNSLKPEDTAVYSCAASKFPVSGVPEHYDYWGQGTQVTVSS: 5.67e-05 s⁻¹
PVRIG-A117 (Fc fusion, heavy chain antibody VHH-hinge-CH2-CH3, human IgG1 constant part; not shown: human IgG1 hinge-CH2-CH3) EVQVVESGGGLVQAGGSLRLSCTASEHIYDLYIMGWYRQAPGKDRELVATITYTGSIYIADSVKDRFTISRGNAKNTVSLQMSGLKPEDTAVYYCNADPSGLGRKLYWGQGTQVTVSS: 0.00137 s⁻¹
PVRIG-A118 (Fc fusion, heavy chain antibody VHH-hinge-CH2-CH3, human IgG1 constant part; not shown: human IgG1 hinge-CH2-CH3) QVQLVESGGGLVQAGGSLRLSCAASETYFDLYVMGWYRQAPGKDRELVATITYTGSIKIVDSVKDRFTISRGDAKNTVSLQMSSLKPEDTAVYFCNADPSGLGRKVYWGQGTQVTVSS: 0.00114 s⁻¹

Kindly indicate its recorded koff. Item: PVRIG-A35 (Fc fusion, heavy chain antibody VHH-hinge-CH2-CH3, human IgG1 constant part; not shown: human IgG1 hinge-CH2-CH3) EVQVVESGGGLVQSGGSLRLSCAASGRTRSMYVMGWFRQAPGKEREFVGRIKWSGDTTYTSYADFVKGRFTLYGNQARNTVYLQMNSLKPEDTAVYYCNGRSRFNVINAWGTGTLVTVAS 7.53e-06 s⁻¹

Kindly indicate its recorded koff. Item: PVRIG-A104 (Fc fusion, heavy chain antibody VHH-hinge-CH2-CH3, human IgG1 constant part; not shown: human IgG1 hinge-CH2-CH3) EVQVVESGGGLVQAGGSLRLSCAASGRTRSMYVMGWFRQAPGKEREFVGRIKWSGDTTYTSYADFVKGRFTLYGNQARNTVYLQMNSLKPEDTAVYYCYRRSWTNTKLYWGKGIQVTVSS 4.24e-06 s⁻¹

Kindly indicate its recorded koff. Item: PVRIG-A30 (Fc fusion, heavy chain antibody VHH-hinge-CH2-CH3, human IgG1 constant part; not shown: human IgG1 hinge-CH2-CH3) QVQLVESGGGLVQPGGSLRLSCAASGRTDSMNVMGWFRRAPGKEREFVARIKWNGDTTYTAYADFLKGRFTLYGAVARNRVYLQMNSLQPEDTAVYYCAAGEVSGSSYSPDYGMHYWGKGTLVTVSS 6.36e-05 s⁻¹

Kindly indicate its recorded koff. Item: PVRIG-A43 (Fc fusion, heavy chain antibody VHH-hinge-CH2-CH3, human IgG1 constant part; not shown: human IgG1 hinge-CH2-CH3) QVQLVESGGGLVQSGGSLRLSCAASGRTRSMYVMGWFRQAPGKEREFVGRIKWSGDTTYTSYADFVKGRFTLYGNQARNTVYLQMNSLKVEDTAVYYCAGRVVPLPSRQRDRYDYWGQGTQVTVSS 8.58e-06 s⁻¹

Kindly indicate its recorded koff. Item: PVRIG-A105 (Fc fusion, heavy chain antibody VHH-hinge-CH2-CH3, human IgG1 constant part; not shown: human IgG1 hinge-CH2-CH3) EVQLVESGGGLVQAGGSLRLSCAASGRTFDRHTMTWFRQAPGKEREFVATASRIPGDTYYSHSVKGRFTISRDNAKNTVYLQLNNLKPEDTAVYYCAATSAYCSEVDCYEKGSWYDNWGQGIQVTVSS 0.000443 s⁻¹
